- subject of test: Human plasma purified α-thrombin (Homo sapiens)
- protocol summary: Thrombin cleavage kinetics of quenched fluorescence (QF) peptide substrates, progress curve
- Assay type: biochemical
- cond: kcat/KM relative to PAR 1 control substrate Lys(Dnp)-ATNATLDPRIVGG-Lys(Abz)
Where no end group is shown, it is not given here. The star is where a group is joined. Dnp = O=[N+]([O-])c1ccc(*)c([N+](=O)[O-])c1; 2Abz = Nc1ccccc1C(=O)O
reported property: Fold-Improved (PAR-1)
Give bare numbers.

Worked set:
>>> data_value("Thrombin (3): QF substrate Lys(Dnp)-X10-X1-IVGG-Lys(Abz), X10-X1 = EDSDRAIEGR (K(Dnp)EDSDRAIEGRIVGGK(2Abz))")
0.000
>>> data_value("TAFI: QF substrate Lys(Dnp)-X10-X1-IVGG-Lys(Abz), X10-X1 = QISNDTVSPR (K(Dnp)QISNDTVSPRIVGGK(Abz))")
1.9
>>> data_value("PAR 3: QF substrate Lys(Dnp)-X10-X1-IVGG-Lys(Abz), X10-X1 = NLAKPTLPIK (K(Dnp)NLAKPTLPIKIVGGK(2Abz))")
0.01
>>> data_value("Osteopontin: QF substrate Lys(Dnp)-X10-X1-IVGG-Lys(Abz), X10-X1 = RGDSVVYGLR (K(Dnp)RGDSVVYGLRIVGGK(Abz))")
0.1
>>> data_value("Thrombin (1): QF substrate Lys(Dnp)-X10-X1-IVGG-Lys(Abz), X10-X1 = DQVTVAMTPR (K(Dnp)DQVTVAMTPRIVGGK(2Abz))")
10.7

Batch of 7 substances: report Fold-Improved (PAR-1) for each.
1. Protein C: QF substrate Lys(Dnp)-X10-X1-IVGG-Lys(Abz), X10-X1 = EDQEDQVDPR (K(Dnp)EDQEDQVDPRIVGGK(2Abz))
2. Factor V (1): QF substrate Lys(Dnp)-X10-X1-IVGG-Lys(Abz), X10-X1 = HTHHAPLSPR (K(Dnp)HTHHAPLSPRIVGGK(Abz))
3. PAR 4: QF substrate Lys(Dnp)-X10-X1-IVGG-Lys(Abz), X10-X1 = STPSILPAPR (K(Dnp)STPSILPAPRIVGGK(2Abz))
4. Factor V (2): QF substrate Lys(Dnp)-X10-X1-IVGG-Lys(Abz), X10-X1 = NRLAAALGIR (K(Dnp)NRLAAALGIRIVGGK(2Abz))
5. Factor VIII (2): QF substrate Lys(Dnp)-X10-X1-IVGG-Lys(Abz), X10-X1 = YDEDENQSPR (K(Dnp)YDEDENQSPRIVGGK(2Abz))
6. FpB: QF substrate Lys(Dnp)-X10-X1-IVGG-Lys(Abz), X10-X1 = DNEEGFFSAR (K(Dnp)DNEEGFFSARIVGGK(2Abz))
7. Thrombin (2): QF substrate Lys(Dnp)-X10-X1-IVGG-Lys(Abz), X10-X1 = SEYQTFFNPR (K(Dnp)SEYQTFFNPRIVGGK(Abz))

0.6
11.2
3.4
0.3
0.3
0.1
7.1

====

- subject of test: Human plasma purified α-thrombin (Homo sapiens, UniProt P00734)
- protocol summary: Thrombin cleavage kinetics of quenched fluorescence (QF) peptide substrates, progress curve
- Format: biochemical
- cond: kcat/KM relative to PAR 1 control substrate Lys(Dnp)-ATNATLDPRIVGG-Lys(Abz)
Where no end group is shown, it is not given here. The star is where a group is joined. Dnp = O=[N+]([O-])c1ccc(*)c([N+](=O)[O-])c1; 2Abz = Nc1ccccc1C(=O)O
So I've got a bunch of substances here, and I need their Fold-Improved (PAR-1) values.
Numbers only.

Worked set:
>>> data_value("Factor XI: QF substrate Lys(Dnp)-X10-X1-IVGG-Lys(Abz), X10-X1 = NESTTKIKPR (K(Dnp)NESTTKIKPRIVGGK(2Abz))")
7.1
>>> data_value("Factor VIII (1): QF substrate Lys(Dnp)-X10-X1-IVGG-Lys(Abz), X10-X1 = LSKNNAIEPR (K(Dnp)LSKNNAIEPRIVGGK(2Abz))")
4.7
>>> data_value("Factor XIII: QF substrate Lys(Dnp)-X10-X1-IVGG-Lys(Abz), X10-X1 = TVELQGVVPR (K(Dnp)TVELQGVVPRIVGGK(Abz))")
4.2
>>> data_value("Factor V (3): QF substrate Lys(Dnp)-X10-X1-IVGG-Lys(Abz), X10-X1 = PDNIAAWYLR (K(Dnp)PDNIAAWYLRIVGGK(2Abz))")
0.03

Return reported Fold-Improved (PAR-1) values for all items listed beneath this line.
1. Antithrombin: QF substrate Lys(Dnp)-X10-X1-IVGG-Lys(Abz), X10-X1 = ASTAVVIAGR (K(Dnp)ASTAVVIAGRIVGGK(2Abz))
2. FpA_P: QF substrate Lys(Dnp)-X10-X1-IVGG-Lys(Abz), X10-X1 = DFLAEGGGPR; FpA with proline at X2 (K(Dnp)DFLAEGGGPRIVGGK(2Abz))

1. 0.000
2. 14.2

Provenance of the data: patent US20160024487A1
